Data provenance: patent US20250282866A1

TARGET: T1, human TREM2 (human, UniProt Q9NZC2 19-174, limits assumed)
T1 construct: also called triggering receptor expressed on myeloid cells 2
T1 sequence: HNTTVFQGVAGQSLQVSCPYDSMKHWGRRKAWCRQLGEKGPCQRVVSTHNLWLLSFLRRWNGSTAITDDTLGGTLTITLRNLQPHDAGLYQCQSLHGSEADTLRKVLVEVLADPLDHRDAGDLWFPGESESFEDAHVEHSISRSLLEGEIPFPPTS
ASSAY SUMMARY: 1st screen (110 nM or 10 nM)
PROPERTY: Binding Signal (fold over 6E7 Parental antibody)
The answer consists of two parts: a number and, after it, its unit.

Task item: Quote Binding Signal (fold over 6E7 Parental antibody) reported for V33 (antibody, V domains shown) VH: EVQLVQSGAEVKKPGESLKISCKGSGYSFTSYWIAWVRQMPGKGLEWMGIIYPGDSDTRYSPSFQGQVTISADKSISTAYLQWSSLKASDTAMYFCARQRTFYGDSSDYFDYWGQGTLVTVSS VL: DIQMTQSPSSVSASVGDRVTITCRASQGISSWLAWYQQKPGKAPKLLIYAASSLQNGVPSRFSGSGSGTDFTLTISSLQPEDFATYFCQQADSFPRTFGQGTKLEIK please.
Reply: 0.23 fold

Task item: Give a short answer stating reported Binding Signal (fold over 6E7 Parental antibody) for V23 (antibody, V domains shown) VH: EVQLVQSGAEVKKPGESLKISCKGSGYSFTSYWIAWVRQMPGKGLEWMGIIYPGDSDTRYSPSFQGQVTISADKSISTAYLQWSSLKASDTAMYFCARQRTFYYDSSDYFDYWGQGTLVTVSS VL: DIQMTQSPSSVSASVGDRVTITCRASQGISSWLAWYQQKPGKAPKLLIYAASSLQNGVPSRFSGSGSGTDFTLTISSLQPEDFATYFCQQADSFPLTFGQGTKLEIK .
Reply: 0.4 fold

Task item: Name the recorded Binding Signal (fold over 6E7 Parental antibody) of the item V64 (antibody, V domains shown) VH: EVQLVQSGAEVKKPGESLKISCKGSGYSFQSYWIAWVRQMPGKGLEWMGIIYPGDSDTRYSPSFQGQVTISADKSISTAYLQWSSLKASDTAMYFCARGRTFYYDSSDYFDYWGQGTLVTVSS VL: DIQMTQSPSSVSASVGDRVTITCRASQGISSWLAWYQQKPGKAPKLLIYAASSLANGVPSRFSGSGSGTDFTLTISSLQPEDFATYFCQQADSYPRTFGQGTKLEIK in your answer.
Reply: 5.41 fold

Task item: # return recorded Binding Signal (fold over 6E7 Parental antibody) for entry V56 (antibody, V domains shown) VH: EVQLVQSGAEVKKPGESLKISCKGSGYSFTSYWIAWVRQMPGKGLEWMGIIYPGDSDTRYQPSFQGQVTISADKSISTAYLQWSSLKASDTAMYFCARQRTFYYDSSDYFDYWGQGTLVTVSS VL: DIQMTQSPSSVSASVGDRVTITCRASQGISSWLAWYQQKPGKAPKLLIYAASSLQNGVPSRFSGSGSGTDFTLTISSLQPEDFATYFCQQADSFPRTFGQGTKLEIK
Reply: 0.23 fold

Task item: Fill in reported Binding Signal (fold over 6E7 Parental antibody) for this entry: V70 (antibody, V domains shown) VH: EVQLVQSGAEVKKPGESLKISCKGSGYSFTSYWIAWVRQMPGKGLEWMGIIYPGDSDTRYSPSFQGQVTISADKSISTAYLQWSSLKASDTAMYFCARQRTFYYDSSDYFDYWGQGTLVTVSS VL: DIQMTQSPSSVSASVGDRVTITCRASQGISSWLAWYQQKPGKAPKLLIYAAGSLQNGVPSRFSGSGSGTDFTLTISSLQPEDFATYFCQQADSFPRTFGQGTKLEIK
Reply: 0.79 fold
